- experimental-system: PI3Kβ (Homo sapiens (Human))
- procedure-text: PI3K isoform TR-FRET enzymatic assay (PI3Kβ)
- Format: biochemical
- condition-label: 2× Km ATP, 30 minutes at 25° C.
endpoint-label: IC50 (nM)

Example entries and their recorded answers appear below.
Cc1ncc(-c2cc(N3CCOCC3)cc3c2nc(C)n3-c2ccnc3c(Cl)cccc23)s1; 3800
CC1(c2nc3c(-c4nnc[nH]4)cc(N4CCOCC4)cc3n2-c2ccnc3c(Cl)cccc23)CC1; 28
CCCc1nc2c(-c3cnc(Cl)[nH]3)cc(N3CCOCC3)cc2n1-c1ccnc2c(Cl)cccc12; 15
Clc1cccc2c(-n3c(C4CC4)nc4c(-c5nnc[nH]5)cc(N5CCOCC5)cc43)ccnc12; 19

(A) CCc1nc2c(-c3cnc[nH]3)cc(N3CCOCC3)cc2n1-c1ccnc2c(F)ccc(F)c12
(B) Cc1nc2c(-c3nnc[nH]3)cc(N3CCOCC3)cc2n1-c1ccnc2cc(F)cc(F)c12
(C) Cc1nc2c(-c3cccnc3)cc(N3CCOCC3)cc2n1-c1ccnc2c(-c3cccnc3)cccc12
(D) Cc1nc2c(-c3ncco3)cc(N3CCOCC3)cc2n1-c1ccnc2c(F)ccc(F)c12
Request: Order field: IC50 | Direction: descending (largest first) Note for the reader: the ranking is given by listing the labels in the order requested.
Result: C, B, A, D
(C: 5200 nM, B: 46 nM, A: 20 nM, D: 5 nM)

----------
- experimental-system: PI3Kβ (Homo sapiens (Human), UniProt P42338)
- Sequence (P42338 whole entry, canonical isoform): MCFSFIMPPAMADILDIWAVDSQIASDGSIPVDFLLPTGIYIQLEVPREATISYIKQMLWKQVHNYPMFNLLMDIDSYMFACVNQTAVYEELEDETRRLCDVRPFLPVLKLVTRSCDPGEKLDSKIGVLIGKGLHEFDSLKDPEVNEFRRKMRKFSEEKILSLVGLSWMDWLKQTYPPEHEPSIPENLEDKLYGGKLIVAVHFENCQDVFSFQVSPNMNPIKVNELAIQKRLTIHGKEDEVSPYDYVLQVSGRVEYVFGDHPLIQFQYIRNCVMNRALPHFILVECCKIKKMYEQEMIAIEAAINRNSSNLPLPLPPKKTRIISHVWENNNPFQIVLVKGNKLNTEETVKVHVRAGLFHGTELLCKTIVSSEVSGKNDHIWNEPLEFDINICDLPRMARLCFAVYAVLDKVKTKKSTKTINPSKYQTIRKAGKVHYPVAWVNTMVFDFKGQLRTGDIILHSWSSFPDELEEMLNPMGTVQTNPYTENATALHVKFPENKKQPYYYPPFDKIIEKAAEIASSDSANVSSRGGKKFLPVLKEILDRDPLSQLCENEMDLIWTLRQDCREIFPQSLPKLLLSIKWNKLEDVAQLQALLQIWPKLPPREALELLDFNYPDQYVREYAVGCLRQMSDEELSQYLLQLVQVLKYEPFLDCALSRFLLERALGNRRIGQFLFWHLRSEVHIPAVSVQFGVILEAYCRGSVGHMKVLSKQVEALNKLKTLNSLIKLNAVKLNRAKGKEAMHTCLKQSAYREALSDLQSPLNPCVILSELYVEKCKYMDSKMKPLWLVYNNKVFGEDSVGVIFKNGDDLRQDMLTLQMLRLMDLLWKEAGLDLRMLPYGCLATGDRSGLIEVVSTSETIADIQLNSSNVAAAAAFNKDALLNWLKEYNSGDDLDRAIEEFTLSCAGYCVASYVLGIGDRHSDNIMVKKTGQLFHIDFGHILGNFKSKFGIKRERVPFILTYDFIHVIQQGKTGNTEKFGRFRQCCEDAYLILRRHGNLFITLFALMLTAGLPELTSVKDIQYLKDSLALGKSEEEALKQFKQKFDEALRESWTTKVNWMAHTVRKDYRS
- Sequence (P27986 whole entry partner, canonical isoform): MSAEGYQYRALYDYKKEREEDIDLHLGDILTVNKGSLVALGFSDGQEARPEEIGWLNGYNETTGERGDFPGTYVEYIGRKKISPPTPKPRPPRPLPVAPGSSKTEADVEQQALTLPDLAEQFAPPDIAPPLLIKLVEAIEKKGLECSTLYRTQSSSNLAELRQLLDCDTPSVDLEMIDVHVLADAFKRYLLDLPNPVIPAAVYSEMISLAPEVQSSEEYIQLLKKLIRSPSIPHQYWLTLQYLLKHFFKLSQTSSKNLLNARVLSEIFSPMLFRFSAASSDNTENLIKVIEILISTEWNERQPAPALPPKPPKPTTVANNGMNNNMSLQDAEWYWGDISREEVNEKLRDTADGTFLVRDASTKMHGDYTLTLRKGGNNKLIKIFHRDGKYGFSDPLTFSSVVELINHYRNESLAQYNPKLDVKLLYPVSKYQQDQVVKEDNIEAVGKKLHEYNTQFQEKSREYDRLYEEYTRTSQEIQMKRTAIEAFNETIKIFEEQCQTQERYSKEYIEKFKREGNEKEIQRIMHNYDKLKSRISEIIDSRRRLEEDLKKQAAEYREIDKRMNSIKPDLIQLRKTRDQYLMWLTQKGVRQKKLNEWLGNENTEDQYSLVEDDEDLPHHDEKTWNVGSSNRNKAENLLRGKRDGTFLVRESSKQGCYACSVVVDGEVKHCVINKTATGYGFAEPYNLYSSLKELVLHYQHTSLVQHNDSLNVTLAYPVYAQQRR
- procedure-text: PI3K isoform TR-FRET enzymatic assay (PI3Kβ)
- condition-label: 2× Km ATP, 30 minutes at 25° C.
- Protocol: The compounds of formula (I) were characterized for their enzymatic activity against the PI3K isoforms. The activities were measured using a time-resolved fluorescence resonance energy transfer (TR-FRET) assay. TR-FRET monitored the formation of 3,4,5-inositol triphosphate molecule that competed with fluorescently labeled PIP3 for binding to the GRP-1 pleckstrin homology domain protein. Class I PI3K isoforms were expressed and purified as heterodimeric recombinant proteins. […]
endpoint-label: IC50 (nM)

Example entries and their recorded answers appear below.
CCc1nc2ccccc2c(-n2cnc3c(-c4nnc[nH]4)cc(N4CCOCC4)cc32)c1C; 25
Cc1nnc(-c2cc(N3CCOCC3)cc3c2nc(C)n3-c2ccnc3c(F)ccc(F)c23)[nH]1 (atropisomer, axis not shown) [Compound 350]; 10
FC1(c2nc3c(-c4nnc[nH]4)cc(N4CCOCC4)cc3n2-c2ccnc3c(Cl)cccc23)CC1; 14
Cc1csc(-c2cc(N3CCOCC3)cc3c2nc(C2CC2)n3-c2ccnc3c(Cl)ccc(F)c23)n1; 26
Cc1cc(-n2c(C)nc3c(-c4nc(C)n[nH]4)cc(N4CCOCC4)cc32)c2ccccc2n1; 78

(1) Fc1ccc(Cl)c2nccc(-n3c(C4CC4)nc4c(-c5cnc(Cl)[nH]5)cc(N5CCOCC5)cc43)c12
(2) Cc1nc2c(-c3ccccc3)cc(N3CCOCC3)cc2n1-c1ccnc2c(Cl)cccc12
Request: Which entry has a larger number for IC50, 1 or 2 ? # respond with the chosen item's label
Result: 2

----------
- experimental-system: PI3Kβ (Homo sapiens (Human), UniProt P42338)
- procedure-text: PI3K isoform TR-FRET enzymatic assay (PI3Kβ)
- condition-label: 2× Km ATP, 30 minutes at 25° C.
endpoint-label: IC50 (nM)

Example entries and their recorded answers appear below.
Cc1nc2c(-c3nnc(Cl)[nH]3)cc(N3CCOCC3)cc2n1-c1ccnc2c(F)ccc(F)c12 [Example 180]; 42
Clc1ncc(-c2cc(N3CCOCC3)cc3c2nc(C2CC2)n3-c2ccnc3c(Cl)cccc23)[nH]1 [Example 290]; 68
Fc1cccc2c(-n3c(CC4CC4)nc4c(-c5cnc(Cl)[nH]5)cc(N5CCOCC5)cc43)ccnc12 [Example 304]; 81
Cc1nc2c(-c3cnc(Cl)[nH]3)cc(N3CCOCC3)cc2n1-c1ccnc2c(Cl)cccc12 [Example 278]; 4

(a) Cc1nc2c(-c3nnc(N)o3)cc(N3CCOCC3)cc2n1-c1ccnc2cc(F)ccc12 [Example 163]
(b) Cc1cnc2c(Cl)cccc2c1-n1c(C)nc2c(-c3nnc[nH]3)cc(N3CCOCC3)cc21 [Example 68]
(c) Fc1ccc(F)c2c(-n3c(C4COC4)nc4c(-c5nnc[nH]5)cc(N5CCOCC5)cc43)ccnc12 [Example 123]
Request: Order field: IC50 | Direction: descending (largest first) Note for the reader: the ranking is given by listing the labels in the order requested.
Result: a, c, b

(A) Fc1ccc(F)c2c(-n3c(C4CC4)nc4c(-c5cnc(Cl)[nH]5)cc(N5CCOCC5)cc43)ccnc12 [Example 286]
(B) Cc1nc2c(-c3nnc[nH]3)cc(N3CCOCC3)cc2n1-c1ccnc2c(F)ccc(Cl)c12 [Example 126]
(C) CCc1nc2c(-c3cnc(Cl)[nH]3)cc(N3CCOCC3)cc2n1-c1cc(C)nc2c(F)cccc12 [Example 283]
Request: Order field: IC50 | Direction: descending (largest first) Note for the reader: the ranking is given by listing the labels in the order requested.
Result: C, B, A
(C: 71 nM, B: 21 nM, A: 14 nM)

(a) CCc1nc2c(-c3nnc[nH]3)cc(N3CCOCC3)cc2n1-c1ccnc2c(F)cccc12 [Example 139]
(b) Clc1cccc2c(-n3c(-c4cn[nH]c4)nc4c(-c5nnc[nH]5)cc(N5CCOCC5)cc43)ccnc12 [Example 120]
Request: Hi there, can you help? I need to know whether a or b has lower measured IC50. # respond with the chosen item's label
Result: a
(a: 14 nM, b: 27 nM)

(P) Cc1nc2c(-c3ncc[nH]3)cc(N3CCOCC3)cc2n1-c1ccnc2c(Cl)cccc12 [Example 175]
(Q) CCCc1nc2c(-c3nnc[nH]3)cc(N3CCOCC3)cc2n1-c1ccnc2c(F)c(F)ccc12 [Example 49]
(R) Cc1nc2c(-c3ccccn3)cc(N3CCOCC3)cc2n1-c1ccnc2c(Cl)cccc12 [Example 323]
(S) CCc1nc2c(-c3cnc(C)[nH]3)cc(N3CCOCC3)cc2n1-c1ccnc2c(F)ccc(F)c12 [Example 206]
Request: In this exercise, place the 4 molecules in ascending sequence of their recorded IC50. Note for the reader: the ranking is given by listing the labels in the order requested.
Result: P, Q, S, R
(P: 10 nM, Q: 18 nM, S: 40 nM, R: 417 nM)

----------
- experimental-system: PI3Kβ (Homo sapiens (Human), UniProt P42338)
- procedure-text: PI3K isoform TR-FRET enzymatic assay (PI3Kβ)
- condition-label: 2× Km ATP, 30 minutes at 25° C.
endpoint-label: IC50 (nM)

Example entries and their recorded answers appear below.
N#Cc1ncc(-c2cc(N3CCOCC3)cc3c2ncn3-c2ccnc3c(F)ccc(F)c23)[nH]1; 860
Fc1ccc2c(-n3c(C4CC4)nc4c(-c5cnc(Cl)[nH]5)cc(N5CCOCC5)cc43)ccnc2c1Cl; 17
Cc1cc(-n2c(C)nc3c(-c4nnc[nH]4)cc(N4CCOCC4)cc32)c2cccc(C(F)(F)F)c2n1; 30
Cc1nc2c(-c3nnc[nH]3)cc(N3CCOCC3)cc2n1-c1ccnc2c(F)cccc12; 13

(I) Cc1nc2c(-c3nnc[nH]3)cc(N3CCOCC3)cc2n1-c1ccnc2c(Cl)c(F)ccc12
(II) Clc1cccc2c(-n3c(C4CCCO4)nc4c(-c5ccccc5)cc(N5CCOCC5)cc43)ccnc12 (stereo not drawn)
(III) Cc1nnc(-c2cc(N3CCOCC3)cc3c2nc(C2CCC2)n3-c2ccnc3c(Cl)cccc23)[nH]1
(IV) Cc1cc(-n2c(C)nc3c(-c4nnn[nH]4)cc(N4CCOCC4)cc32)c2ccccc2n1
(V) Cc1nc2c(-c3cnccn3)cc(N3CCOCC3)cc2n1-c1ccnc2c(Cl)cccc12
Request: Order field: IC50 | Direction: descending (largest first) Note for the reader: the ranking is given by listing the labels in the order requested.
Result: V, IV, II, III, I

----------
- experimental-system: PI3Kβ (Homo sapiens (Human), UniProt P42338)
- procedure-text: PI3K isoform TR-FRET enzymatic assay (PI3Kβ)
- condition-label: 2× Km ATP, 30 minutes at 25° C.
pIC50: −log10 of the molar value.
endpoint-label: pIC50

CCc1nc2c(-c3nnc[nH]3)cc(N3CCOCC3)cc2n1-c1c(C)cnc2c(C#N)cccc12 [Example 155]; 7.70
Cc1cccc2c(-n3c(C)nc4c(-c5nnc[nH]5)cc(N5CCOCC5)cc43)ccnc12 [Example 109]; 7.89
Cc1nc2c(-c3nccs3)cc(N3CCOCC3)cc2n1-c1ccnc2c(Cl)ccc(F)c12 [Example 240]; 8.70

(a) CCc1nc2c(-c3cnc(Cl)[nH]3)cc(N3CCOCC3)cc2n1-c1ccnc2c(F)cccc12 [Example 284]
(b) CCc1nc2c(-c3cnc(Cl)[nH]3)cc(N3CCOCC3)cc2n1-c1ccnc2c(F)ccc(Cl)c12 [Example 310]
Request: Hi there, can you help? I need to know whether a or b has lower measured pIC50. # respond with the chosen item's label
Result: b

(P) Cc1cnc2c(C#N)cccc2c1-n1c(C)nc2c(-c3nnc[nH]3)cc(N3CCOCC3)cc21 [Example 156]
(Q) CCc1nc2c(-c3nnc[nH]3)cc(N3CCOCC3)cc2n1-c1c(C)cnc2c(C#N)cccc12 (atropisomer, axis not shown) [Compound 365]
Request: Hi there, can you help? I need to know whether P or Q has lower measured pIC50. # respond with the chosen item's label
Result: Q
